// values below are reported Kd
target: T1, recombinant human CD3 epsilon/gamma heterodimer (human, UniProt P07766 23-126; P09693 23-116); assay: BLI (Octet), mAb 5 ug/mL on FAB2G sensor, hCD3 E/G 200-50 nM;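 also: antibodies purified from hybridoma supernatants, measured by Octet binding to recombinant human CD3 protein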
T1 construct: Recombinant heterodimer used as analyte in Octet; also called hCD3 E/G
T1 sequence (P07766 23-126, chain 1 of 2): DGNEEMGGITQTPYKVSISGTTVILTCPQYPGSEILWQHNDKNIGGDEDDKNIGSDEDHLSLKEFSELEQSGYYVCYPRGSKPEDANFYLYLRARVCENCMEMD
T1 sequence (P09693 23-116, chain 2 of 2): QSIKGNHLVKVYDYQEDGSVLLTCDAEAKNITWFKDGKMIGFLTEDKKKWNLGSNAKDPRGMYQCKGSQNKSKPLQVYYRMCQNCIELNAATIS

{"columns": ["binder", "Kd, nM"],
 "data": [
  ["ABL-CD3-67 (antibody, V domains shown, mAb purified from hybridoma; chimeric AlivaMab IgG (human VH, CH1 and upper hinge; mouse middle hinge, CH2, CH3; human light chain)) VH: EVQLVESGGGLVKPGGSLRLSCAASGFTVSSYSMNWVRQAPGKGLEWVSSISRSSSYIYYADSVKGRFTISRDNAKNSLFLQMNSLRAEDTAVYYCARERWELLYFDYWGQGTLVTVSS VL: NFMLTQPHSVSESPGKTVTISCTRSSGSIASNYVQWYRQRPGSSPTTVIYEDNQRPSGVPDRFSGAIDSSSTSASLTISGLKTEDEADYYCQSYDSSNRVFGGGTKLTVL", 109],
  ["ABL-CD3-82 (antibody, V domains shown, mAb purified from hybridoma; chimeric AlivaMab IgG (human VH, CH1 and upper hinge; mouse middle hinge, CH2, CH3; human light chain)) VH: EVQLVESGGGLVKPGGSLRLSCAASGFTFSSYSMNWVRQAPGKGLEWVSSISSSSSYIYYADSVKGRFTISRDNAKNSLYLQMNSLRAEDTAVYYCARDRRELLLDYWGQGTLVTVSS VL: SYELTQPPSVSVSPGQTARITCSGDALPKKYAYWYQQKSGQAPVLVIYEDSKRPSGIPERFSGSSSGTMATLTISGAQVEDEADYYCYSTDSSGNHSWVFGGGTKLTVL", 3.18],
  ["ABL-CD3-85 (antibody, V domains shown, mAb purified from hybridoma; chimeric AlivaMab IgG (human VH, CH1 and upper hinge; mouse middle hinge, CH2, CH3; human light chain)) VH: EVQLVESGGGLVKPGGSLRLSCAASGFTFSSYSMNWVRQAPGKGLEWVSSISRRSGYIYYADSVKGRFTLSRDNAKKSLYLQMNSLRAEDTAVYYCARDLNWAFDYWGQGTLVTVSS VL: NFMLTQPHSVSESPGKTVTISCTRSSGSIASNYVQWYQQRPGSSPTTVIYEDNHRPSGVPDRFSGSIDSSSNSASLTIAGLKTEDEADYYCQSCDSSNVVFGGGTKLTVL", 29.8]
]}
